Entry source: ChEMBL document CHEMBL3758114

target: UniProt Q13547
Sequence (Q13547 whole entry): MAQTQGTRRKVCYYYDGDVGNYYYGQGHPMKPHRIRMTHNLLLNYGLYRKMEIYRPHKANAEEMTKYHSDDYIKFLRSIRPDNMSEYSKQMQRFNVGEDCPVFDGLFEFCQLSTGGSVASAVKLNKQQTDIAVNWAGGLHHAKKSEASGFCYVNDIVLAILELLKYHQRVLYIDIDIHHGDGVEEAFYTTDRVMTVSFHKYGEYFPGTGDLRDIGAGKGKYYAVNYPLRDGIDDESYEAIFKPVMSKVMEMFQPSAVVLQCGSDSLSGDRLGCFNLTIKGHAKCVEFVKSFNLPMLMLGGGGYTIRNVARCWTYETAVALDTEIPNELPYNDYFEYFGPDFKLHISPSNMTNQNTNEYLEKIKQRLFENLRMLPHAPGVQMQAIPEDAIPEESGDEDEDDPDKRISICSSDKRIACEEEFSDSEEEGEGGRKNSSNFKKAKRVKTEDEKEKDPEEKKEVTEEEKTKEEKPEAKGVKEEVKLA
measured.quantity: pIC50
Bear in mind: pIC50 is minus log10 of a mol/L concentration; give just that figure.

QUERY: Please look at `COc1cc2ncnc(Nc3ccc(Br)cc3)c2cc1OCCCCCCC(=O)NO` and tell me its recorded pIC50 on UniProt Q13547.
RESULT: 8.74

----------
test system: MCF7; experiment: Antiproliferative activity against human MCF7 cells after 48 hrs by MTT assay; type: functional, cell-based; conditions: MCF7, 48 h
pIC50: −log10 of the molar value.
# if value of pIC50 reaches 5, tag TRUE; if it stays below, tag FALSE

QUERY: Could you please find out whether `COc1cc2ncnc(Nc3ccccc3F)c2cc1OCCCCC(=O)NO` has pIC50 that meets 5 or exceeds it?
RESULT: FALSE

QUERY: Record `COc1cc2ncnc(Nc3ccc(F)cc3)c2cc1OCCCCCCC(=O)NO` ; criterion: pIC50 no lower than 5. Met?
RESULT: TRUE

QUERY: Identify whether the reported pIC50 of the following molecule is 5 or greater: `COc1cc2ncnc(Nc3ccccc3F)c2cc1OCCCCCC(=O)NO`
RESULT: FALSE

QUERY: Kindly determine if pIC50 recorded for `COc1cc2ncnc(Nc3ccc(F)cc3)c2cc1OCCCCC(=O)NO` is above or exactly 5.
RESULT: FALSE

QUERY: Quick check: does `COc1cc2ncnc(Nc3ccc(Cl)cc3)c2cc1OCCCCCCC(=O)NO` have pIC50 greater than or equal to 5?
RESULT: TRUE

QUERY: Could you verify whether the entry `COc1cc2ncnc(Nc3ccc(Br)cc3)c2cc1OCCCCCCC(=O)NO` shows pIC50 of no less than 5?
RESULT: TRUE

QUERY: Is it the case that `COc1cc2ncnc(Nc3ccccc3Br)c2cc1OCCCCCCC(=O)NO` has pIC50 reaching or exceeding 5?
RESULT: TRUE

QUERY: Determine whether measured pIC50 meets or exceeds 5 for `COc1cc2ncnc(Nc3ccccc3Br)c2cc1OCCCCCC(=O)NO`
RESULT: FALSE

QUERY: Answer whether pIC50 of `COc1cc2ncnc(Nc3ccc(F)cc3)c2cc1OCCCCCC(=O)NO` is greater than or equal to 5.
RESULT: FALSE

QUERY: Hello, I need to know if `COc1cc2ncnc(Nc3ccccc3Cl)c2cc1OCCCCC(=O)NO` has measured pIC50 not below 5. Thanks!
RESULT: FALSE

QUERY: Entry `COc1cc2ncnc(Nc3ccccc3Br)c2cc1OCCCCC(=O)NO` : is its pIC50 no less than 5?
RESULT: FALSE

QUERY: Does pIC50 meet or surpass 5 for `COc1cc2ncnc(Nc3ccccc3Cl)c2cc1OCCCC(=O)NO` ?
RESULT: FALSE
